- PROTOCOL_SUMMARY: Bioavailability in rat after […] administration at 10 mg/kg dose
- Format: ADME, organism-based
- ASSAY_CONDITIONS: in vivo, read-out: Ba
MEASURED_PARAMETER: bioavailability
Please state the number and follow it with the unit.

Query: What value of measured bioavailability is listed for O=C(O)COc1cccc2c1CC[C@](O)(COC(=O)N(c1ccccc1)c1ccccc1)C2 ?
Result: 38%

* * *

Each item that follows carries a reported Ki.
- TGT: Prostaglandin E2 receptor EP1 subtype (Homo sapiens)
- Sequence (P34995 whole entry): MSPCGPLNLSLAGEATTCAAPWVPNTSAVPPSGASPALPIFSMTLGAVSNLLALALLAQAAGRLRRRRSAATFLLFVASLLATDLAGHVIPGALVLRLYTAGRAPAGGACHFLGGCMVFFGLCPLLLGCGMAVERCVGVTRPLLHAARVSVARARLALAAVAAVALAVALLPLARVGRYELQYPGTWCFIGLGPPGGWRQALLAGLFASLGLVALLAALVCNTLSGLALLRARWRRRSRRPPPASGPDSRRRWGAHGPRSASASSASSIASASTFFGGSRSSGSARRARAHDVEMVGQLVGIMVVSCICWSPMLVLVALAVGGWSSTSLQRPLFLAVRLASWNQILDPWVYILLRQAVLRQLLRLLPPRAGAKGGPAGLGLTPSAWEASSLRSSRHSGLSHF

>  <COMPOUND>
O=C(O)COc1cccc2c1CCC(COC(=O)N(c1ccccc1)c1ccccc1)C2 (stereo not drawn)

>  <Ki>
> 1 µM

$$$$
>  <COMPOUND>
O=C(O)COc1cccc(C[C@@H]2CCCC=C2c2nc(-c3ccccc3)c(-c3ccccc3)o2)c1

>  <Ki>
> 1 µM

$$$$

Query: What value of measured Ki is listed for O=C(O)COc1cccc2c1CC[C@](O)(COC(=O)N(c1ccccc1)c1ccccc1)C2 ?
Result: 9.6 µM

* * *

- PROTOCOL_SUMMARY: Total clearance in dog after intravenous administration at 0.32 mg/kg dose
- Format: ADME, organism-based, Canis lupus familiaris
- Set-up: dose 0.32 mg/kg, route intravenous
- ASSAY_CONDITIONS: in vivo, read-out: CLtot
MEASURED_PARAMETER: clearance (mL/min/kg)
Provide the reading as a plain figure in mL/min/kg.

Query: What value of measured clearance is listed for O=C(O)COc1cccc2c1CC[C@](O)(COC(=O)N(c1ccccc1)c1ccccc1)C2 ?
Result: 2.31

* * *

- Test system: dog (Canis familiaris)
- PROTOCOL_SUMMARY: Area under curve in dog after oral administdogion at 0.32 mg/kg dose
- ASSAY_CONDITIONS: in vivo
MEASURED_PARAMETER: AUC (ng·h/mL)
Provide the reading as a plain figure in ng·h/mL.

Query: What value of measured AUC is listed for O=C(O)COc1cccc2c1CC[C@](O)(COC(=O)N(c1ccccc1)c1ccccc1)C2 ?
Result: 2200

* * *

- PROTOCOL_SUMMARY: Total clearance in rat after intravenous administration at 10 mg/kg dose
- Format: ADME, organism-based
- Set-up: dose 10 mg/kg, route intravenous
- ASSAY_CONDITIONS: in vivo, read-out: CLtot
MEASURED_PARAMETER: clearance (mL/min/kg)
Provide the reading as a plain figure in mL/min/kg.

Query: What value of measured clearance is listed for O=C(O)COc1cccc2c1CC[C@](O)(COC(=O)N(c1ccccc1)c1ccccc1)C2 ?
Result: 38
